test system: SK-BR-3; assay: normalised response (% of control), CellTiter-Glo; higher = more viable cells (100 = DMSO, 0 = benzethonium chloride kill control); conditions: incubation time: 72 h
Overview of reported normalised response across a group of molecules:
# unit: % | format: bare number

Sample answers from the record:
[[record]]
molecule = "COCC1(CO)C(=O)C2CCN1CC2 (stereo not given) [Prima-1 Met] (1 nM)"
target_or_system = "SK-BR-3"
test_result = 109

[[record]]
molecule = "COc1cc2ncnc(Nc3ccc(F)c(Cl)c3)c2cc1OCCCN1CCOCC1 [Gefitinib] (1 nM)"
target_or_system = "SK-BR-3"
test_result = 108

[[record]]
molecule = "Oc1ccc2c(c1)CC[C@H](c1ccccc1)[C@@H]2c1ccc(OCCN2CCCC2)cc1 [Lasofoxifene] (100 nM)"
target_or_system = "SK-BR-3"
test_result = 113

[[record]]
molecule = "C=C1C[C@@H]2[C@H](CC[C@]3(C)C(=O)CC[C@@H]23)[C@@]2(C)C=CC(=O)C=C12 [Exemestane] (1000 nM)"
target_or_system = "SK-BR-3"
test_result = 108


Shifting focus to the molecule that follows.
Data point: CN(C)c1nc(N(C)C)nc(N(C)C)n1 [Altretamine] (1000 nM) ; normalised response = 107

----------
Overview of reported normalised response across a group of compounds:
test system: MFM-223; assay: normalised response (% of control), CellTiter-Glo; higher = more viable cells (100 = DMSO, 0 = benzethonium chloride kill control); settings: incubation time: 72 h
# unit: % | format: bare number

Sample answers from the record:
[[record]]
compound = "CNC(=O)c1ccc(N2C(=S)N(c3ccc(C#N)c(C(F)(F)F)c3)C(=O)C2(C)C)cc1F [Enzalutamide] (10 nM)"
observable = "normalised response"
endpoint_unit = "%"
test_result = 98.6

[[record]]
compound = "O=C(/C=C/c1cccc(S(=O)(=O)Nc2ccccc2)c1)NO [Belinostat] (1000 nM)"
observable = "normalised response"
endpoint_unit = "%"
test_result = 34.2

[[record]]
compound = "COc1cc(OC2CCN(C)CC2)ccc1Nc1ncc2c(n1)n(C1CCCC1)c(=O)n2C [AZ 3146] (10 nM)"
observable = "normalised response"
endpoint_unit = "%"
test_result = 102

[[record]]
compound = "CNC(=O)c1cccc(-c2ccc3c(N4CCOC[C@@H]4C)nc(N4CCOC[C@@H]4C)nc3n2)c1 [AZD2014] (1000 nM)"
observable = "normalised response"
endpoint_unit = "%"
test_result = 33.7

[[record]]
compound = "CN(C)CCOc1ccc(/C(=C(/CCCl)c2ccccc2)c2ccccc2)cc1 [Toremifene] (1 nM)"
observable = "normalised response"
endpoint_unit = "%"
test_result = 103


Data point: CCc1c2c(nc3ccc(OC(=O)N4CCC(N5CCCCC5)CC4)cc13)-c1cc3c(c(=O)n1C2)COC(=O)[C@]3(O)CC [Irinotecan] (1000 nM) ; normalised response = 104

Data point: CNC(=O)c1cc(Oc2ccc(NC(=O)Nc3ccc(Cl)c(C(F)(F)F)c3)c(F)c2)ccn1 [Regorafenib] (1 nM) ; normalised response = 97.2

----------
test system: HCC1143; test: normalised response (% of control), CellTiter-Glo; higher = more viable cells (100 = DMSO, 0 = benzethonium chloride kill control); conditions: incubation time: 72 h
Overview of reported normalised response across a group of compounds:
# unit: % | format: bare number

Sample answers from the record:
[[record]]
compound = "COc1cc2ncnc(Nc3ccc(F)c(Cl)c3)c2cc1OCCCN1CCOCC1 [Gefitinib] (1 nM)"
endpoint_unit = "%"
test_result = 102

[[record]]
compound = "O=C(Nc1ccncc1)C(=O)c1cn(Cc2ccc(Cl)cc2)c2ccccc12 [Indibulin] (10 nM)"
endpoint_unit = "%"
test_result = 100

[[record]]
compound = "COc1cc2c(NC3CCN(C(C)C)CC3)nc(N3CCC(F)(F)CC3)nc2cc1OCCCN1CCCC1 [UNC0642] (10 nM)"
endpoint_unit = "%"
test_result = 95.3

[[record]]
compound = "O=C(/C=C/c1cccc(S(=O)(=O)Nc2ccccc2)c1)NO [Belinostat] (1000 nM)"
endpoint_unit = "%"
test_result = 47.3

[[record]]
compound = "S=P(N1CC1)(N1CC1)N1CC1 [Thio-TEPA] (5 nM)"
endpoint_unit = "%"
test_result = 96.2

[[record]]
compound = "COc1cc(OC2CCN(C)CC2)ccc1Nc1ncc2c(n1)n(C1CCCC1)c(=O)n2C [AZ 3146] (1000 nM)"
endpoint_unit = "%"
test_result = 99.2

[[record]]
compound = "CN(C)c1nc(N(C)C)nc(N(C)C)n1 [Altretamine] (1000 nM)"
endpoint_unit = "%"
test_result = 103


Shifting focus to the compound that follows.
Data point: Cc1[nH]c2ccccc2c1CCNCc1ccc(/C=C/C(=O)NO)cc1 [Panobinostat] (1 nM) ; normalised response = 104

----------
Overview of reported normalised viability across a group of molecules:
tested on: BT-549; assay: normalised viability (% of control), CellTiter-Blue; higher = more viable cells (100 = DMSO, 0 = benzethonium chloride kill control); settings: incubation time: 72 h
# unit: % | format: bare number

Sample answers from the record:
[[record]]
molecule = "Cc1[nH]c2ccccc2c1CCNCc1ccc(/C=C/C(=O)NO)cc1 [Panobinostat] (0.1 nM)"
observable = "normalised viability"
test_result = 108

[[record]]
molecule = "O=C(Nc1cccnc1)N1CCC(Cc2cccc(Oc3ccc(C(F)(F)F)cn3)c2)CC1 [PF-3845] (1 nM)"
observable = "normalised viability"
test_result = 111

[[record]]
molecule = "N#Cc1ccc(COC[C@H]2O[C@@H](n3c(NCc4ccc(Cl)c(Cl)c4)nc4c(N)ncnc43)[C@H](O)[C@@H]2O)cc1 (1 nM)"
observable = "normalised viability"
test_result = 105


Data point: CC(C)C[C@@H](C(=O)N[C@H](C(=O)OC1CCCC1)c1ccccc1)[C@H](O)C(=O)NO [Tosedostat] (1 nM) ; normalised viability = 92.1

----------
system: MDA-MB-231; settings: 72 h
Overview of reported EC50, CellTiter-Blue viability across a group of compounds:
# unit: µM | format: bare number

[[record]]
sample_smiles = "CCc1c2c(nc3ccc(OC(=O)N4CCC(N5CCCCC5)CC4)cc13)-c1cc3c(c(=O)n1C2)COC(=O)[C@]3(O)CC"
endpoint_unit = "µM"
test_result = 8.35


Data point: COC(=O)c1ccc2c(c1)NC(=O)/C2=C(\Nc1ccc(N(C)C(=O)CN2CCN(C)CC2)cc1)c1ccccc1 ; EC50, CellTiter-Blue viability = 4.16

Data point: O=C(Nc1ccncc1)C(=O)c1cn(Cc2ccc(Cl)cc2)c2ccccc12 ; EC50, CellTiter-Blue viability = 0.0872

Data point: COc1cc2/c(=N/c3ccc(Br)cc3F)nc[nH]c2cc1OCC1CCN(C)CC1 ; EC50, CellTiter-Blue viability = 2.48

----------
system: MDA-MB-436; assay: normalised viability (% of control), CellTiter-Blue; higher = more viable cells (about 100 = DMSO control); settings: 1000 nM; incubation time: 72 h
Overview of reported normalised viability across a group of compounds:
Express your answer as a number followed by its unit.

Sample answers from the record:
[[record]]
compound = "Cc1cc(Nc2cc(CN3CCOCC3)c3nc(C)c(Cc4ccc(Cl)cc4F)n3n2)n[nH]1"
target_or_system = "MDA-MB-436"
observable = "normalised viability"
test_result = "71.1%"

[[record]]
compound = "c1ccc2c(CCNc3ccc(Nc4ccncc4)cc3)c[nH]c2c1 [Serdemetan]"
target_or_system = "MDA-MB-436"
observable = "normalised viability"
test_result = "51.4%"


Shifting focus to the compound that follows.
Data point: CO[C@H]1C[C@@H]2CC[C@@H](C)[C@@](O)(O2)C(=O)C(=O)N2CCCC[C@H]2C(=O)O[C@H]([C@H](C)C[C@@H]2CC[C@@H](OP(C)(C)=O)[C@H](OC)C2)CC(=O)[C@H](C)/C=C(\C)[C@@H](O)[C@@H](OC)C(=O)[C@H](C)C[C@H](C)/C=C/C=C/C=C/1C [Ridaforolimus] ; normalised viability = 79%

----------
system: MDA-MB-436; test: normalised response (% of control), CellTiter-Glo; higher = more viable cells (100 = DMSO, 0 = benzethonium chloride kill control); conditions: incubation time: 72 h
Observable: normalised response

[[record]]
compound = "COC(=O)c1ccc2c(c1)NC(=O)/C2=C(\\Nc1ccc(N(C)C(=O)CN2CCN(C)CC2)cc1)c1ccccc1 [Nintedanib] (100 nM)"
observable = "normalised response"
test_result = "102%"

[[record]]
compound = "CN(C)c1nc(N(C)C)nc(N(C)C)n1 [Altretamine] (100 nM)"
observable = "normalised response"
test_result = "99.1%"

[[record]]
compound = "CN(C)CCOc1ccc(/C(=C(/CCCl)c2ccccc2)c2ccccc2)cc1 [Toremifene] (100 nM)"
observable = "normalised response"
test_result = "100%"


Shifting focus to the compound that follows.
Bench note, MDA-MB-436: S=P(N1CC1)(N1CC1)N1CC1 [Thio-TEPA] (500 nM) , normalised response reads 94.8%
